- testSystem: Casein kinase II subunit alpha' (Homo sapiens)
- Sequence (P19784 whole entry): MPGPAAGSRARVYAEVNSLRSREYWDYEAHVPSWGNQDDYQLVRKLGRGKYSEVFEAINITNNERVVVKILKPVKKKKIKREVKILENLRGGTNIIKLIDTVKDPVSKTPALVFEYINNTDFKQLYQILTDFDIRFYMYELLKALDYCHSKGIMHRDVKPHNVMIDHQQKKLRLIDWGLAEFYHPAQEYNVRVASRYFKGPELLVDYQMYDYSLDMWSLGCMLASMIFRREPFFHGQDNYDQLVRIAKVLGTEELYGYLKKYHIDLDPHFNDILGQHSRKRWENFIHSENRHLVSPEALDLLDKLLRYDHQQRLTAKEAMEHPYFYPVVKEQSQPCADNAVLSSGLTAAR
- measurementNotes: Displacement of fluorescent tracer from full-length human C-terminal NanoLuc-tagged CK2alpha' expressed in HEK293T permeabilized cells measured after 2 hrs by NanoBRET assay
- Type: cell-based
propertyName: IC50

chemSmiles: COC(=O)c1ccc2cc1OCCOCCNc1ccn3ncc-2c3n1
IC50: > 50000 nM
--
chemSmiles: COC(=O)c1ccc(-c2cnn3ccc(N(CCOCCO)C(=O)OC(C)(C)C)nc23)cc1O
IC50: > 50000 nM
--
chemSmiles: O=C(O)c1ccc2cc1OCCOCCNc1ccn3ncc-2c3n1
IC50: 303 nM

Ask: Fill in: IC50 of `CC(C)(C)OC(=O)N1CCOCCOc2cc(ccc2C(=O)O)-c2cnn3ccc1nc23` is ___
Reply: 771 nM
